- target_system: Capsid scaffolding protein (Human herpesvirus 2 (strain HG52) (HHV-2) (Human herpes simplex virus2), UniProt P89449)
- procedure_details: Inhibitory activity against herpes simplex virus type 2 (HSV-2) protease was determined using quenched fluorescence assay
readout_label: pIC50
The quantity pIC50 is defined as the negative base-10 logarithm of the molar concentration.

Worked set:
{"structure": "Cc1csc2nc([C@H](C)NC(=O)/C=C/c3sccc3Br)oc(=O)c12", "assay_value": 6.60}
{"structure": "Cc1csc2nc([C@H](C)NC(=O)/C=C/c3ccccc3[N+](=O)[O-])oc(=O)c12", "assay_value": 6.14}
{"structure": "Cc1cc(/C=C/C(=O)N[C@@H](C)c2nc3scc(C)c3c(=O)o2)c(C)s1", "assay_value": 6.72}

[ask] State, in one line, measured pIC50 of Cc1csc2nc([C@H](C)NC(=O)/C=C/c3ccc([N+](=O)[O-])cc3)oc(=O)c12
[reply] 6.03

[ask] State, in one line, measured pIC50 of Cc1csc2nc([C@H](C)NC(=O)/C=C/c3ccccn3)oc(=O)c12
[reply] 6.30

[ask] State, in one line, measured pIC50 of Cc1csc2nc([C@H](C)NC(=O)/C=C/c3c(F)cccc3Cl)oc(=O)c12
[reply] 6.28

[ask] State, in one line, measured pIC50 of Cc1csc2nc([C@H](C)NC(=O)/C=C/c3ccc(O)cc3Cl)oc(=O)c12
[reply] 6.64

[ask] State, in one line, measured pIC50 of Cc1csc2nc([C@H](C)NC(=O)/C=C/c3ccnc4ccccc34)oc(=O)c12
[reply] 6.60

====

- Tested on: Cytomegalovirus
- procedure_details: Inhibitory activity against cytomegalovirus (CMV) herpes was determined using quenched fluorescence assay
- Assay type: functional, organism-based
- settings: Human betaherpesvirus 5
In this section, each of the compounds is paired with its reported IC50.
Number plus unit, in that order.

{"structure": "Cc1csc2nc([C@H](C)NC(=O)/C=C/c3ccc(O)cc3Cl)oc(=O)c12", "readout_label": "IC50", "assay_value": "0.19 µM"}
{"structure": "Cc1csc2nc([C@H](C)NC(=O)/C=C/c3ccsc3)oc(=O)c12", "readout_label": "IC50", "assay_value": "0.38 µM"}

[ask] State, in one line, measured IC50 of Cc1ccccc1/C=C/C(=O)N[C@@H](C)c1nc2scc(C)c2c(=O)o1
[reply] 20 µM

====

- Tested on: Human alphaherpesvirus 2
- procedure_details: Inhibitory activity against herpes simplex virus type 2 (HSV-2) herpes protease was determined using quenched fluorescence assay
- Format: functional, organism-based
readout_label: IC50 (µM)
Express the result in µM but write the number alone.

[ask] Fill in: IC50 on Human alphaherpesvirus 2, entry Cc1csc2nc([C@H](C)NC(=O)/C=C(\Sc3ccccc3)c3ccccc3)oc(=O)c12
[reply] 3.1

====

- target_system: Capsid scaffolding protein (Human herpesvirus 2 (strain HG52) (HHV-2) (Human herpes simplex virus2))
- Sequence (P89449 whole entry): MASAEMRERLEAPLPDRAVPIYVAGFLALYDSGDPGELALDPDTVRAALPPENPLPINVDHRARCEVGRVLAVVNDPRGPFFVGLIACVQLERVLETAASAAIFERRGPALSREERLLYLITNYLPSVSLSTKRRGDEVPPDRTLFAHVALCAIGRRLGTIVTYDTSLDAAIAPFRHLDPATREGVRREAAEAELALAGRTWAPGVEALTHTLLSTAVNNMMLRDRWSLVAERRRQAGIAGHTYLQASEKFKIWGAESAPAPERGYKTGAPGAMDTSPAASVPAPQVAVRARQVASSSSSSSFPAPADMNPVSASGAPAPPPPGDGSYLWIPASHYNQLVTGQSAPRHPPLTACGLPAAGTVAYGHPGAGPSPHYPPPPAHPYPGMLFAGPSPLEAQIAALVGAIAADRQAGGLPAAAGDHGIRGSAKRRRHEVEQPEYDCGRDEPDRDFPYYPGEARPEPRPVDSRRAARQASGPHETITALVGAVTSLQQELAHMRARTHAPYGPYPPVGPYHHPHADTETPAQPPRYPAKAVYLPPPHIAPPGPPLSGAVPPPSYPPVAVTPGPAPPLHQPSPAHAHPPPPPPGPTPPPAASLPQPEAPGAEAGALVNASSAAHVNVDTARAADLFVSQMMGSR
- procedure_details: Inhibitory activity against herpes simplex virus type 2 (HSV-2) protease was determined using quenched fluorescence assay
readout_label: pIC50
The quantity pIC50 is defined as the negative base-10 logarithm of the molar concentration.

Worked set:
{"structure": "Cc1csc2nc([C@H](C)NC(=O)/C=C/c3ccccc3Br)oc(=O)c12", "pIC50": 6.32}
{"structure": "Cc1csc2nc([C@H](C)NC(=O)/C=C(\\c3ccccc3)c3cccs3)oc(=O)c12", "pIC50": 6.59}
{"structure": "Cc1csc2nc([C@H](C)NC(=O)/C=C/c3c(Cl)cccc3Cl)oc(=O)c12", "pIC50": 5.71}
{"structure": "Cc1csc2nc([C@H](C)NC(=O)/C=C/c3ccc(C=O)cc3)oc(=O)c12", "pIC50": 6.28}

[ask] State, in one line, measured pIC50 of Cc1csc2nc([C@H](C)NC(=O)/C=C/c3ccc(Br)o3)oc(=O)c12
[reply] 6.31

[ask] State, in one line, measured pIC50 of Cc1ccc(/C=C/C(=O)N[C@@H](C)c2nc3scc(C)c3c(=O)o2)s1
[reply] 6.19

[ask] State, in one line, measured pIC50 of Cc1csc2nc([C@H](C)NC(=O)C=C(c3ccccc3)c3ccccc3)oc(=O)c12
[reply] 6.30

[ask] State, in one line, measured pIC50 of COc1cc(/C=C/C(=O)N[C@@H](C)c2nc3scc(C)c3c(=O)o2)cc(OC)c1
[reply] 6.46

====

- System: MRC5
- procedure_details: Cytotoxicity by using MRC-5 cell culture assay (XTT)
- Format: functional
- settings: Homo sapiens, read-out: TC50 (the source's name)
Binarize CC50 at 100 µM; below is label 1, at or above is label 0.

Reference set, count: 4
{"structure": "Cc1csc2nc([C@H](C)NC(=O)C=C(c3cccs3)c3cccs3)oc(=O)c12", "class_name": "label 1"}
{"structure": "Cc1csc2nc([C@H](C)NC(=O)/C=C/c3ccc(Br)s3)oc(=O)c12", "class_name": "label 1"}
{"structure": "Cc1csc2nc([C@H](C)NC(=O)/C=C/c3ccc(Cl)s3)oc(=O)c12", "class_name": "label 0"}
{"structure": "Cc1cc(/C=C/C(=O)N[C@@H](C)c2nc3scc(C)c3c(=O)o2)c(C)s1", "class_name": "label 0"}

Now look at this entry.
[ask] Strictly below 100 µM in CC50? Cc1csc2nc([C@H](C)NC(=O)/C=C/c3ccccc3)oc(=O)c12
[reply] label 1

====

In this section, each of the compounds is paired with its reported K obs / 1.
- Tested on: Human alphaherpesvirus 2
- procedure_details: Inactivation rate against herpes simplex type 2 (HSV-2) was determined
- Format: functional
Express the result in M⁻¹ s⁻¹ but write the number alone.

Worked set:
{"structure": "Cc1csc2nc([C@H](C)NC(=O)/C=C/c3ccc(Br)s3)oc(=O)c12", "K obs / 1 (M⁻¹ s⁻¹)": 12000}
{"structure": "Cc1csc2nc([C@H](C)NC(=O)/C=C/c3ccc(Cl)s3)oc(=O)c12", "K obs / 1 (M⁻¹ s⁻¹)": 58000}
{"structure": "Cc1cc(/C=C/C(=O)N[C@@H](C)c2nc3scc(C)c3c(=O)o2)c(C)s1", "K obs / 1 (M⁻¹ s⁻¹)": 53000}

Note: attention shifts to another entry.
[ask] State, in one line, measured K obs / 1 of Cc1csc2nc([C@H](C)NC(=O)C=C(c3cccs3)c3cccs3)oc(=O)c12
[reply] 120000

====

- target_system: Capsid scaffolding protein (Human herpesvirus 2 (strain HG52) (HHV-2) (Human herpes simplex virus2), UniProt P89449)
- procedure_details: Inhibitory activity against herpes simplex virus type 2 (HSV-2) protease was determined using quenched fluorescence assay
Binarize IC50 at 1000 nM; below is yes (1), at or above is no (0).

Reference set, count: 3
{"structure": "Cc1ccsc1/C=C/C(=O)N[C@@H](C)c1nc2scc(C)c2c(=O)o1", "class_name": "yes (1)"}
{"structure": "Cc1csc2nc([C@H](C)NC(=O)/C=C/c3ccccc3Cl)oc(=O)c12", "class_name": "yes (1)"}
{"structure": "Cc1csc2nc([C@H](C)NC(=O)C=C(c3cccs3)c3cccs3)oc(=O)c12", "class_name": "yes (1)"}

Now look at this entry.
[ask] Strictly below 1000 nM in IC50? Cc1ccccc1/C=C/C(=O)N[C@@H](C)c1nc2scc(C)c2c(=O)o1
[reply] no (0)

====

- target_system: Capsid scaffolding protein (Human herpesvirus 2 (strain HG52) (HHV-2) (Human herpes simplex virus2), UniProt P89449)
- procedure_details: Inhibitory activity against herpes simplex virus type 2 (HSV-2) protease was determined using quenched fluorescence assay
readout_label: pIC50
The quantity pIC50 is defined as the negative base-10 logarithm of the molar concentration.

Worked set:
{"structure": "Cc1csc2nc([C@H](C)NC(=O)/C=C/c3ccc(Br)s3)oc(=O)c12", "assay_value": 6.57}
{"structure": "CCOc1ccccc1/C=C/C(=O)N[C@@H](C)c1nc2scc(C)c2c(=O)o1", "assay_value": 6.25}

Note: attention shifts to another entry.
[ask] State, in one line, measured pIC50 of Cc1csc2nc([C@H](C)NC(=O)/C=C/c3cc(Br)cs3)oc(=O)c12
[reply] 6.72

Numbers sourced from ChEMBL document CHEMBL1132395.
